Test system: HL-60
Test: NCI tumour cell line growth inhibition, 48 h
Counter-ions that a name gives are not always drawn. Activity calls are given as the source filed them. Rule as the data show it: active = GI50 up to about 1.1 µM and inactive = higher.
I would appreciate it if you answered using one of these outcomes: 1.0 for active, 0.0 for inactive

Answered cases to consult:
Molecule: CCOc1cc2c(cc1O)/C(=N\OC)C[C@@H]1[C@@H]2CC[C@]2(C)[C@@H](O)CC[C@@H]12
Assigned Class: 1.0

Molecule: CCOC(=O)/C=C/C(=O)O/C=C/[N+](=O)[O-]
Assigned Class: 0.0

Molecule: O=[N+]([O-])c1ccc2sc(/C=N/c3cnccn3)cc2c1
Assigned Class: 0.0

Molecule: CCC1(N=[N+]=[N-])C(=O)Nc2cc(C)ccc2C1=O (stereo not drawn)
Assigned Class: 0.0

Molecule: COC(=O)C1(C)CCCC2(C)c3cc(OC)ccc3C(=O)C(Br)C12 (stereo not drawn)
Assigned Class: 0.0

Ask: What was the test verdict on Cc1c(/N=N/c2ccc([N+](=O)[O-])cc2)nc2scc(-c3ccccc3)n12 ?
Result: 0.0

Ask: What was the test verdict on Cn1c(=O)c2[nH]c(/N=N\n3ccc4ccccc43)nc2n(C)c1=O ?
Result: 0.0

Ask: What was the test verdict on COC(=O)C(I(OS(=O)(=O)c1ccc(C)cc1)c1ccccc1)=P(c1ccccc1)(c1ccccc1)c1ccccc1 ?
Result: 0.0

Ask: What was the test verdict on O=C1NC(N2CCCCC2)=N/C1=C\c1cccs1 ?
Result: 0.0

Ask: What was the test verdict on COc1ccc(Cc2nccc3cc(OC)c(OC)cc23)cc1OC [PAPAVERINE HYDROCHLORIDE] ?
Result: 0.0

Ask: What was the test verdict on CC(=O)O/C(=C1\C[C@H]2[C@@H]3CC=C4C[C@@H](OC(C)=O)CC[C@]4(C)[C@H]3CC[C@]2(C)C1=O)C(F)(F)F ?
Result: 0.0

Ask: What was the test verdict on CCOc1ccc(NC(=O)C(=O)CC(=O)c2sc(NNC(C)=O)nc2C)cc1 ?
Result: 0.0
